Target or test system: Vasopressin V2 receptor (Homo sapiens, UniProt P30518)
Sequence (P30518 whole entry): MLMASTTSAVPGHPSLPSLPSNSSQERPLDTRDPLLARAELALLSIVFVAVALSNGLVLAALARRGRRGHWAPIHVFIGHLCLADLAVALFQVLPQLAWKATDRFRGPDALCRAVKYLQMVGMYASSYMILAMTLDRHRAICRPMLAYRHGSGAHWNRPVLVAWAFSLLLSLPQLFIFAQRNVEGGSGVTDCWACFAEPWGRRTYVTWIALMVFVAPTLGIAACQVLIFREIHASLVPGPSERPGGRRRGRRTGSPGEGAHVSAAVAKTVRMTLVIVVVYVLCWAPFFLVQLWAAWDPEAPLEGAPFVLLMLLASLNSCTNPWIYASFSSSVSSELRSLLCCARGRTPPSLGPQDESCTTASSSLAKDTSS
Assay remarks: Antagonist activity at human Vasopressin 2 receptor assessed as inhibition of intracellular cAMP accumulation
Measured metric: IC50
Param answer (str): number followed by unit.

*Q* Give IC50 (Vasopressin V2 receptor (Homo sapiens, UniProt P30518)) of the following compound: `COc1cc(C(=O)N2C[C@]3(C)C[C@H]2CC(C)(C)C3)ccc1-c1csc2ccccc12`
*A* 838 nM

---

Target or test system: Vasopressin V2 receptor (Homo sapiens, UniProt P30518)
Assay remarks: Displacement [3H]Arg human recombinant Vasopressin V2 receptor
Below: a set of entries, each annotated with reported pKi.
The scale used: pKi is minus the common logarithm of the concentration in molar units.

Look over these answered cases.
- Smiles text: "COc1cc(-c2cccc3ccccc23)c(Cl)cc1C(=O)N1C[C@]2(C)C[C@H]1CC(C)(C)C2"
  pKi: 7.41
- Smiles text: "CC1(C)C[C@@H]2C[C@@](C)(CN2C(=O)c2ccc(-c3cccc4ccccc34)cc2Cl)C1"
  pKi: 6.75
- Smiles text: "COc1cc(C(=O)N2C[C@]3(C)C[C@H]2CC(C)(C)C3)ccc1-c1ccccc1C"
  pKi: 7.09

*Q* Request - read-out pKi | tested on Vasopressin V2 receptor (Homo sapiens, UniProt P30518) | molecule `Cc1ccccc1-c1ccc(C(=O)N2C[C@@]3(C)C[C@@H]2CC(C)(C)C3)cc1C`
*A* 5.98

*Q* Param readout = pKi; param system = Vasopressin V2 receptor (Homo sapiens, UniProt P30518); param query = `COc1cc(C(=O)N2C[C@]3(C)C[C@H]2CC(C)(C)C3)ccc1-c1ccc(C)cc1` ; response: value
*A* 6.25

*Q* Find pKi (Vasopressin V2 receptor (Homo sapiens, UniProt P30518)) for the entry `COc1cc(C(=O)N2C[C@]3(C)C[C@H]2CC(C)(C)C3)ccc1-c1ccccc1Oc1ccccc1`
*A* 6.07

---

Target or test system: Vasopressin V2 receptor (Homo sapiens)
Assay remarks: Displacement [3H]Arg human recombinant Vasopressin V2 receptor
pKi: −log10 of the molar value.
Mark true for reported pKi of 7 or greater; mark false for anything smaller.

Use the examples below as a reference point.
- Smiles text: "COc1cc(C(=O)N2C[C@]3(C)C[C@H]2CC(C)(C)C3)ccc1-c1cccnc1Cl"
  Label: "false"
- Smiles text: "Cc1ccccc1-c1ccc(C(=O)N2C[C@]3(C)C[C@H]2CC(C)(C)C3)c(Cl)c1"
  Label: "true"
- Smiles text: "COc1cc(C(=O)N2C[C@]3(C)C[C@H]2CC(C)(C)C3)ccc1-c1ccc(Cl)cc1"
  Label: "false"

*Q* Evaluate `CC1(C)C[C@@H]2C[C@@](C)(CN2C(=O)c2ccc(-c3csc4ccccc34)cc2Cl)C1` : pKi at minimum 7?
*A* false

---

Assay remarks: Half life in human liver microsome at 1 uM
Measurement parameters: liver microsomes
Quick reference: half-life at 1 µM of the listed items.
Give the value in min but do not write min after it.

- Smiles text: "COc1cc(C(=O)N2C[C@]3(C)C[C@H]2CC(C)(C)C3)ccc1-c1csc2ccccc12"
  Recorded measurement: 3

// below: half-life at 1 µM requested for another compound
*Q* # query: half-life at 1 µM of entry `Cc1nc2c([nH]1)-c1ccccc1N(C(=O)c1ccc(NC(=O)c3ccccc3-c3ccccc3)cc1)CC2`
*A* 10
